Just for reference, patent US20090311237A1 is where these values come from.

test.details: Pharmacokinetics of ZA in pig serum after IV or SC infusion with or without rHuPH20 (LC-MS-MS, non-compartmental analysis)
Format: in vivo
condition.info: female, Yorkshire, pig, serum, subcutaneous, […], Time 0.5 h; pig ID 69; Study Group 2; SC; ZA […]; 25 mL, 4 min; rHuPH20 0 U/mL; read-out: Zoledronic Acid Serum Concentration
measured.property: concentration at 0.5 h (ng/mL)
Give your result in ng/mL as a bare value.

(Q) Query concentration at 0.5 h for O=P(O)(O)C(O)(Cn1ccnc1)P(=O)(O)O [ZA]
(A) 115

====

test.details: Pharmacokinetics of ZA in pig serum after IV or SC infusion with or without rHuPH20 (LC-MS-MS, non-compartmental analysis)
Assay type: in vivo
condition.info: female, Yorkshire, pig, serum, subcutaneous, […], Time 3 h; pig ID 69; Study Group 2; SC; ZA […]; 25 mL, 4 min; rHuPH20 0 U/mL; read-out: Zoledronic Acid Serum Concentration
measured.property: concentration at 3 h (ng/mL)
Give your result in ng/mL as a bare value.

(Q) Query concentration at 3 h for `O=P(O)(O)C(O)(Cn1ccnc1)P(=O)(O)O`
(A) 20.5

====

test.details: Phase 1 Stage 1 clinical pharmacokinetics of SC ZA co-administered with rHuPH20
Format: in vivo, human
condition.info: human, serum, sc, serum; ZA 5 mg SC infusion + 24000 Units rHuPH20; 10 min post infusion; n=3; read-out: Median Conc.
measured.property: concentration at 10 min (ng/mL)
Give your result in ng/mL as a bare value.

(Q) Query concentration at 10 min for `O=P(O)(O)C(O)(Cn1ccnc1)P(=O)(O)O`
(A) 121

====

test.details: Phase 1 Stage 1 clinical pharmacokinetics of SC ZA co-administered with rHuPH20
Assay type: in vivo, human
condition.info: human, serum, sc, serum; ZA 2 mg SC infusion + 24000 Units rHuPH20; 6 h post infusion; n=3; read-out: Median Conc.
measured.property: concentration at 6 h (ng/mL)
Give your result in ng/mL as a bare value.

(Q) Query concentration at 6 h for `O=P(O)(O)C(O)(Cn1ccnc1)P(=O)(O)O`
(A) 7.71

====

test.details: Phase 1 Stage 1 clinical pharmacokinetics of SC ZA co-administered with rHuPH20
Type: in vivo, human
condition.info: human, serum, sc, ZA 5 mg SC + 24000 U rHuPH20; individual subjects; read-out: MRT
measured.property: MRT (h)
Give your result in h as a bare value.

(Q) Query MRT for `O=P(O)(O)C(O)(Cn1ccnc1)P(=O)(O)O`
(A) 10.9

====

test.details: Pharmacokinetics of ZA in pig serum after IV or SC infusion with or without rHuPH20 (LC-MS-MS, non-compartmental analysis)
Type: in vivo
condition.info: female, Yorkshire, pig, serum, subcutaneous, […], Time 0.5 h; pig ID 60; Study Group 2; SC; ZA […]; 100 mL, 16 min; rHuPH20 0 U/mL; read-out: Zoledronic Acid Serum Concentration
measured.property: concentration at 0.5 h (ng/mL)
Give your result in ng/mL as a bare value.

(Q) Query concentration at 0.5 h for `O=P(O)(O)C(O)(Cn1ccnc1)P(=O)(O)O`
(A) 211

====

test.details: Phase 1 Stage 1 clinical pharmacokinetics of SC ZA co-administered with rHuPH20
Type: in vivo, human
condition.info: human, serum, sc, ZA 0.25 mg SC + 24000 U rHuPH20; median, n=3
Description: A pharmacokinetic study of zoledronic acid (ZA) co-administered with rHuPH20 in human subjects was conducted. […] Serum concentration of ZA was determined using a qualified LC-MS-MS assay after derivatization with diazomethane (Zhu, L S et al. (2006) Rapid Commun. […] The assay range was from 2.0 to 400 ng/mL with a lower limit of quantitation (LLOQ) at 2.0 ng/mL. […] Summary statistics (mean, standard deviation, and median) were calculated using JMP or Microsoft Excel.
measured.property: Cmax (ng/mL)
Give your result in ng/mL as a bare value.

(Q) Query Cmax for `O=P(O)(O)C(O)(Cn1ccnc1)P(=O)(O)O`
(A) 6.84

====

test.details: Phase 1 Stage 1 clinical pharmacokinetics of SC ZA co-administered with rHuPH20
Type: in vivo, human
condition.info: human, serum, sc, serum; ZA 2 mg SC infusion + 24000 Units rHuPH20; 0.5 h post infusion; n=3; read-out: Mean Conc.
measured.property: concentration at 0.5 h (ng/mL)
Give your result in ng/mL as a bare value.

(Q) Query concentration at 0.5 h for `O=P(O)(O)C(O)(Cn1ccnc1)P(=O)(O)O`
(A) 51.9

====

test.details: Phase 1 Stage 1 clinical pharmacokinetics of SC ZA co-administered with rHuPH20
Assay type: in vivo, human
condition.info: human, serum, sc, serum; ZA 2 mg SC infusion + 24000 Units rHuPH20; 1 h post infusion; individual subjects; read-out: Zoledronic Acid Concentration
Procedure: A pharmacokinetic study of zoledronic acid (ZA) co-administered with rHuPH20 in human subjects was conducted. […] Serum concentration of ZA was determined using a qualified LC-MS-MS assay after derivatization with diazomethane (Zhu, L S et al. (2006) Rapid Commun. […] The assay range was from 2.0 to 400 ng/mL with a lower limit of quantitation (LLOQ) at 2.0 ng/mL. […] Summary statistics (mean, standard deviation, and median) were calculated using JMP or Microsoft Excel.
measured.property: concentration at 1 h (ng/mL)
Give your result in ng/mL as a bare value.

(Q) Query concentration at 1 h for `O=P(O)(O)C(O)(Cn1ccnc1)P(=O)(O)O`
(A) 57.7

====

test.details: Phase 1 Stage 1 clinical pharmacokinetics of SC ZA co-administered with rHuPH20
Format: in vivo, human
condition.info: human, serum, sc, ZA 2 mg SC + 24000 U rHuPH20; mean, n=3; read-out: MRT
measured.property: MRT (h)
Give your result in h as a bare value.

(Q) Query MRT for `O=P(O)(O)C(O)(Cn1ccnc1)P(=O)(O)O`
(A) 7.5

====

test.details: Phase 1 Stage 1 clinical pharmacokinetics of SC ZA co-administered with rHuPH20
Format: in vivo, human
condition.info: human, serum, sc, […], Subj 8; ZA […] SC; inf 0.531 hr; PH20 22944 U; read-out: AUC (0-inf)
measured.property: AUC(0-inf)

(Q) Query AUC(0-inf) for `O=P(O)(O)C(O)(Cn1ccnc1)P(=O)(O)O`
(A) 32.6 ng·h/mL

====

test.details: Phase 1 Stage 1 clinical pharmacokinetics of SC ZA co-administered with rHuPH20
Format: in vivo, human
condition.info: human, serum, sc, serum; ZA 0.25 mg SC infusion + 24000 Units rHuPH20; 10 min post infusion; n=3; read-out: Mean Conc.
measured.property: concentration at 10 min (ng/mL)
Give your result in ng/mL as a bare value.

(Q) Query concentration at 10 min for `O=P(O)(O)C(O)(Cn1ccnc1)P(=O)(O)O`
(A) 5.76

====

test.details: Phase 1 Stage 1 clinical pharmacokinetics of SC ZA co-administered with rHuPH20
Assay type: in vivo, human
condition.info: human, serum, sc, 0.0653 mg/kg, Subj 41; ZA 0.0653 mg/kg SC; inf […]; PH20 12216 U; read-out: AUC (0-inf)
measured.property: AUC(0-inf) (ng·h/mL)
Give your result in ng·h/mL as a bare value.

(Q) Query AUC(0-inf) for `O=P(O)(O)C(O)(Cn1ccnc1)P(=O)(O)O`
(A) 736

====

test.details: Pharmacokinetics of ZA in pig serum after IV or SC infusion with or without rHuPH20 (LC-MS-MS, non-compartmental analysis)
Assay type: in vivo
condition.info: female, Yorkshire, pig, serum, subcutaneous, […], Time 0.333 h; pig ID 59; Study Group 2; SC; ZA […]; 100 mL, 16 min; rHuPH20 0 U/mL; read-out: Zoledronic Acid Serum Concentration
measured.property: concentration at 0.333 h (ng/mL)
Give your result in ng/mL as a bare value.

(Q) Query concentration at 0.333 h for `O=P(O)(O)C(O)(Cn1ccnc1)P(=O)(O)O`
(A) 130

====

test.details: Pharmacokinetics of ZA in pig serum after IV or SC infusion with or without rHuPH20 (LC-MS-MS, non-compartmental analysis)
Format: in vivo
condition.info: female, Yorkshire, pig, serum, iv, […], pig; ZA […] 20-min IV infusion; n=3; read-out: Vz, mean
measured.property: Vd (L/kg)
Give your result in L/kg as a bare value.

(Q) Query Vd for `O=P(O)(O)C(O)(Cn1ccnc1)P(=O)(O)O`
(A) 0.458

====

test.details: Phase 1 Stage 1 clinical pharmacokinetics of SC ZA co-administered with rHuPH20
Assay type: in vivo, human
condition.info: human, serum, sc, 0.0691 mg/kg, Subj 39; ZA 0.0691 mg/kg SC; inf 0.552 hr; PH20 23856 U; read-out: AUC (0-inf)
measured.property: AUC(0-inf) (ng·h/mL)
Give your result in ng·h/mL as a bare value.

(Q) Query AUC(0-inf) for `O=P(O)(O)C(O)(Cn1ccnc1)P(=O)(O)O`
(A) 727
